Parameter 'readout' = Ki; parameter 'system' = human D3 receptor (Homo sapiens (Human), UniProt P35462).
Sequence (P35462 whole entry): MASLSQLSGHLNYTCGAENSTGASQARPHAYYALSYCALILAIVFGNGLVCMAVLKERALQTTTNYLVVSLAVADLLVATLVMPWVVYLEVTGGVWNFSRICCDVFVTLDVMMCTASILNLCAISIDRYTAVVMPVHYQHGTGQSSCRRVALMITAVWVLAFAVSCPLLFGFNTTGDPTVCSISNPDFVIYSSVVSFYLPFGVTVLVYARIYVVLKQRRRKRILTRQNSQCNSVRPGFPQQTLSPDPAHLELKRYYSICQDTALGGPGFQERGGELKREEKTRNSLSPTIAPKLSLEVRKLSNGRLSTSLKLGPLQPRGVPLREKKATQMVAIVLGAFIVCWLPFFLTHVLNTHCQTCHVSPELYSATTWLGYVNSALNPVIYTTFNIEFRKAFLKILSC
Measurement Type: Ki (nM)

1) CS(=O)(=O)c1ccc(C(=O)N[C@H]2CC[C@H](CCN3CCC(c4cccc5c4CCO5)CC3)CC2)cc1 [Example 95] :: 14
2) O=C(N[C@H]1CC[C@H](CCN2CCC(c3cccc4c3CCO4)CC2)CC1)c1ccc(Cl)cc1 [Example 34] :: 4.9
3) CCS(=O)(=O)N[C@H]1CC[C@H](CCN2CCC(c3cccc4c3CCO4)CC2)CC1 [Example 48] :: 11.2
4) CCC(=O)N[C@H]1CC[C@H](CCN2CCC(c3cccc4c3CCO4)CC2)CC1 [Example 13] :: 4.6

Cited source: patent US8877778B2
